# EC50 per record follows
Study System: T1, human TSLP recombinant protein (human, UniProt Q969D9 29-159, biotinylated in the blocking and cell-binding assays (sites not given))
T1 construct: also called biotinylated human TSLP protein
Assay Protocol: ELISA on coated human TSLP;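 also: binding detected by TMB colour development for 10 min at 37 °C, then absorbance measured at 450 nm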
Your answer is read as nM, so omit the unit and give the number.

{"Binder": "Ab1 (antibody, V domains shown, Humanized; also called h39G5VHv1/h39G5VKv1) VH: QVQLVQSGAEVKKPGSSVKVSCKASGYSFISYWIHWVRQAPGQGLEWMGIIDPSDSDTSLNQKFQGRVTLTVDKSSTTAYMELSSLRSEDTAVYYCARSLDGYYDYWGQGTLVTVSS VL: DIQMTQSPSSLSASVGDRVTITCRASENIYSYLAWYQQKPGKAPKLLIYNARTLPEGVPSRFSGSGSGTDFTLTISSLQPEDFATYYCQHHYTTPWTFGQGTKVEIK", "Uom": "nM", "EC50": 0.19}

Please look at the following binder next.
# EC50 lookup, item Ab10 (antibody, V domains shown, Humanized; also called h39G5VHv10/h39G5VKv1) VH: QVQLVQSGAEVKKPGSSVKVSCKASGYTFTDYWMHWVRQAPGQGLEWMGIIDPSDSDTSLNQKFQGRVTITADTSTSTAYMELSSLRSEDTAVYYCARSLDGYYDYWGQGTLVTVSS VL: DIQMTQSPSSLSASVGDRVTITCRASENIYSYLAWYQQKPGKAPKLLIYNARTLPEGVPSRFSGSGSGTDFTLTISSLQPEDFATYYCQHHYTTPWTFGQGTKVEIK
0.32
